Value source: patent US20230416240A1

Dmax values for the molecules below.
Biological target: HiBit tagged KAT6A (Homo sapiens)
Construct: host or cells: HeLa
Assay: HiBit KAT6A Degradation Assessment
Assay type: cell-based
Details: HeLa cells with HiBit tagged KAT6A, 18 h of treatment, 9-point serial dilution

// known answers, use as guide
Molecule: COc1cc(Cn2cccn2)cc2onc(NS(=O)(=O)c3cccc(N4CCC(CN5CCC(Oc6ccc7c(c6)C(=O)N(C6CCC(=O)NC6=O)C7=O)CC5)C4)c3)c12 (centres unmarked)
Test Target: HiBit tagged KAT6A (Homo sapiens)
Dmax: 25 to 50%
--
Molecule: COc1cc(Cn2cccn2)cc2onc(NS(=O)(=O)c3cccc(N4CCC5(CCN(C[C@@H]6CCN(c7ccc8c(c7)CN(C7CCC(=O)NC7=O)C8=O)C6)CC5)CC4)c3)c12 (some centres unmarked)
Test Target: HiBit tagged KAT6A (Homo sapiens)
Dmax: > 75%
--
Molecule: COc1cc(Cn2cccn2)cc2onc(NS(=O)(=O)c3cccc(N4CCN(CCC5CCN(c6ccc7c(c6)C(=O)N(C6CCC(=O)NC6=O)C7=O)C5)CC4)c3)c12 (centres unmarked)
Test Target: HiBit tagged KAT6A (Homo sapiens)
Dmax: 50 to 75%
--
Molecule: COc1cc(Cn2cccn2)cc2onc(NS(=O)(=O)c3cccc(N4CC5(CCN(C6CC7(CCN(c8ccc9c(c8)C(=O)N(C8CCC(=O)NC8=O)C9=O)C7)C6)CC5)C4)c3)c12 (centres unmarked)
Test Target: HiBit tagged KAT6A (Homo sapiens)
Dmax: 50 to 75%
--
Molecule: COc1ccc(N2CC3(CCN(C[C@@H]4CCN(c5ccc6c(c5)C(=O)N(C5CCC(=O)NC5=O)C6=O)C4)CC3)C2)c(OC)c1S(=O)(=O)Nc1noc2cc(Cn3cccn3)cc(OC)c12 (some centres unmarked)
Test Target: HiBit tagged KAT6A (Homo sapiens)
Dmax: > 75%

Identify the measured Dmax of COc1cc(Cn2cccn2)cc2onc(NS(=O)(=O)c3cccc(N4CCC(CN5CCN(c6ccc7c(c6)c6cccnc6n7C6CCC(=O)NC6=O)CC5)C4)c3)c12 (centres unmarked) for HiBit tagged KAT6A (Homo sapiens).
50 to 75%

# query: Dmax | item COc1cc(Cn2cccn2)cc2onc(NS(=O)(=O)c3cccc(N4CC5(CCN(C[C@@H]6CCN(c7ccc8c(c7)C(=O)N(C7CCC(=O)NC7=O)C8=O)C6)CC5)C4)c3)c12 (some centres unmarked) | system: HiBit tagged KAT6A (Homo sapiens)
> 75%

Entry "COc1cc(Cn2cccn2)cc2onc(NS(=O)(=O)c3cccc(N4CC5(CCN(C[C@@H]6CCN(c7ccc8c(c7)CN([C@H]7CCC(=O)NC7=O)C8=O)C6)CC5)C4)c3)c12" , system HiBit tagged KAT6A (Homo sapiens): what Dmax was measured?
> 75%

---

Target: HiBit tagged KAT6A (Homo sapiens)
Construct: host or cells: HeLa
Test: HiBit KAT6A Degradation Assessment
Format: cell-based
Details: HeLa cells with HiBit tagged KAT6A, 18 h of treatment, 9-point serial dilution
Measurement Label: DC50

# example entries with known answers
Compound: COc1cc(Cn2cccn2)cc2onc(NS(=O)(=O)c3cccc(N4CC5(CCN(C[C@H]6CCN(c7ccc8c(c7)C(=O)N(C7CCC(=O)NC7=O)C8=O)C6)CC5)C4)c3)c12 (some centres unmarked)
Test Target: HiBit tagged KAT6A (Homo sapiens)
DC50: < 10 nM

Compound: COc1c(N2CC3(CCN(C[C@@H]4CCN(c5ccc6c(c5)CN(C5CCC(=O)NC5=O)C6=O)C4)CC3)C2)cccc1S(=O)(=O)Nc1noc2cc(Cn3cccn3)cc(OC)c12 (some centres unmarked)
Test Target: HiBit tagged KAT6A (Homo sapiens)
DC50: < 10 nM

Compound: COc1cc(Cn2cccn2)cc2onc(NS(=O)(=O)c3cccc(N4CC5(CCN(CC6CCN(c7ccc8c(c7)CN(C7CCC(=O)NC7=O)C8=O)C6)CC5)C4)c3)c12 (centres unmarked)
Test Target: HiBit tagged KAT6A (Homo sapiens)
DC50: < 10 nM

Compound: COc1cc(Cn2cccn2)cc2onc(NS(=O)(=O)c3cccc(N4CCN(CC5CCN(CC6CCN(c7ccc8c(c7)C(=O)N(C7CCC(=O)NC7=O)C8=O)CC6)CC5)CC4)c3)c12 (centres unmarked)
Test Target: HiBit tagged KAT6A (Homo sapiens)
DC50: < 10 nM

# input for lookup
Could you share what DC50 was measured for COc1cc(Cn2cccn2)cc2onc(NS(=O)(=O)c3cccc(N4CC5(CN(CC6CCN(c7ccc8c(c7)C(=O)N(C7CCC(=O)NC7=O)C8=O)C6)C5)C4)c3)c12 (centres unmarked) , tested on HiBit tagged KAT6A (Homo sapiens)?
10 to 100 nM

---

Target: HiBit tagged KAT6A (Homo sapiens, UniProt Q92794)
Construct: host or cells: HeLa
Sequence (Q92794 whole entry): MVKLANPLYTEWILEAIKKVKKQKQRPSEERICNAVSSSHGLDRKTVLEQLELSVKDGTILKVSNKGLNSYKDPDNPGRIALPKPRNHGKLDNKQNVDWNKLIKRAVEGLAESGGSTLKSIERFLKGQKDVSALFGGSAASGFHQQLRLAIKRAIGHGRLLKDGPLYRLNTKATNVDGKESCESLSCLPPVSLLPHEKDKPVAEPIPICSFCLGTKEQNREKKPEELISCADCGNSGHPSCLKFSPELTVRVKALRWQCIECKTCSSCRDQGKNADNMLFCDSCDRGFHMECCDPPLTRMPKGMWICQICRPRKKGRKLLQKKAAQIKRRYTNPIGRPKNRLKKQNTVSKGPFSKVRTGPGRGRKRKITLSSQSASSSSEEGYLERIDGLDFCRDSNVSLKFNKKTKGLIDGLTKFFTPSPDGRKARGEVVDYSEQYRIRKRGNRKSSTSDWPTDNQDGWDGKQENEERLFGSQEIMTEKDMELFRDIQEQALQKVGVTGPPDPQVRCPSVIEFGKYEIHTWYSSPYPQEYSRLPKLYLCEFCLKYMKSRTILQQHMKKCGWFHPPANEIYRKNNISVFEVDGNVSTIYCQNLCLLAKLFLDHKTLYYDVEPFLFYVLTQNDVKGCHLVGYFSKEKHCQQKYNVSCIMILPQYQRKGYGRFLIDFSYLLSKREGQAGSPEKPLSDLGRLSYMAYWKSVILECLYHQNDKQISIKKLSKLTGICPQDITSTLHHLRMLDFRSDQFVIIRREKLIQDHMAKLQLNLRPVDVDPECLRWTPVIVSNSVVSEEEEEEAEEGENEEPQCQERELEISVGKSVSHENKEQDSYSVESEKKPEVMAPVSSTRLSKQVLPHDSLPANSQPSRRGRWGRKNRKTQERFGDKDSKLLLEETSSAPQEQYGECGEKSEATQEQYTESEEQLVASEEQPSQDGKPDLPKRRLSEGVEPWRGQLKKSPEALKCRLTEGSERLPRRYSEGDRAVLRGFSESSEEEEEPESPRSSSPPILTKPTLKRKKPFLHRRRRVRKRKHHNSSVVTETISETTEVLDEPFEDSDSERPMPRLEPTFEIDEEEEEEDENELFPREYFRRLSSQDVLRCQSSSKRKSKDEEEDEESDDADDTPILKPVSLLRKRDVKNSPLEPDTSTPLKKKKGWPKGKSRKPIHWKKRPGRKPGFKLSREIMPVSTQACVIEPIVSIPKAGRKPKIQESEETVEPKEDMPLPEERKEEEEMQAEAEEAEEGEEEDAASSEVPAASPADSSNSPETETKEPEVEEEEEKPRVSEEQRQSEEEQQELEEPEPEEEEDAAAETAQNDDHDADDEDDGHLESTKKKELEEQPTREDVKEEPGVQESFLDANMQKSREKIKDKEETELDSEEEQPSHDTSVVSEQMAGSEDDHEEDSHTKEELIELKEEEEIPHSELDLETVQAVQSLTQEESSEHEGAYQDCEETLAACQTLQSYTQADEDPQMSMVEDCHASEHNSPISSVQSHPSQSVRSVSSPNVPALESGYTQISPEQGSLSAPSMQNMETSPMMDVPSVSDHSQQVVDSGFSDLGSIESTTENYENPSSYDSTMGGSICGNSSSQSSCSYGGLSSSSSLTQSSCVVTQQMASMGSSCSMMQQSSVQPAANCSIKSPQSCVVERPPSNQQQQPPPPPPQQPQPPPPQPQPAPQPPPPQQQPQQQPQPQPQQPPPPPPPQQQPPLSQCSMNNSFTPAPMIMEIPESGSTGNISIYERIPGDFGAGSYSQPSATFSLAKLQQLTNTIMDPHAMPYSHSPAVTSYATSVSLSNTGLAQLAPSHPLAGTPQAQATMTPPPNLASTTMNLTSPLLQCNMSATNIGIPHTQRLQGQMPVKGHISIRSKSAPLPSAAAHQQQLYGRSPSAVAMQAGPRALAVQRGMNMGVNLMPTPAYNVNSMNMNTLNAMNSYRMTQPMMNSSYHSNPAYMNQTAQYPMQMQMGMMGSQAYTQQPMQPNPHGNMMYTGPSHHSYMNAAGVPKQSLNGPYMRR
Experiment: HiBit KAT6A Degradation Assessment
Assay type: cell-based
Details: HeLa cells with HiBit tagged KAT6A, 18 h of treatment, 9-point serial dilution
Method: The degradation activity of compounds was evaluated by measuring levels of KAT6A protein using the HiBiT system. These studies were conducted in HeLa cells with a HiBit tagged KAT6A. […] After 18 h of treatment, KAT6A levels were measured using the Nano-Glo® HiBiT Lytic Detection System (Promega catalog number N3030) per manufacturer's instructions. Luminescence signal was measured with a multimode plate reader (Envision 2105, Perkin Elmer). […]
Measurement Label: Dmax

Reported Dmax for COc1cc(Cn2cccn2)cc2onc(NS(=O)(=O)c3cccc(N4CC5(CCN(CC6(F)CCN(c7ccc8c(c7)C(=O)N(C7CCC(=O)NC7=O)C8=O)C6)CC5)C4)c3)c12 (centres unmarked) : what is it?
50 to 75%

Need Dmax of COc1cc(Cn2cccn2)cc2onc(NS(=O)(=O)c3cccc(N4CCN(C5CC6(CCN(c7ccc8c(c7)C(=O)N(C7CCC(=O)NC7=O)C8=O)C6)C5)CC4)c3)c12 (centres unmarked) , thanks.
50 to 75%

Could you share which Dmax value was measured for COc1cc(Cn2cccn2)cc2onc(NS(=O)(=O)c3cccc(N4CCN(C5CC6(CCN(c7ccc8c(c7)C(=O)N(C7CCC(=O)NC7=O)C8=O)CC6)C5)CC4)c3)c12 (centres unmarked) ?
> 75%

May I ask what Dmax has been recorded for COc1c(N2CC3(CCN(C[C@H]4CCN(c5ccc6c(c5)CN(C5CCC(=O)NC5=O)C6=O)C4)CC3)C2)cccc1S(=O)(=O)Nc1noc2cc(Cn3cccn3)cc(OC)c12 (some centres unmarked) ?
> 75%

Entry under review: COc1ccc(N2CC3(CCN(CC4CCN(c5ccc6c(c5)C(=O)N(C5CCC(=O)NC5=O)C6=O)C4)CC3)C2)cc1S(=O)(=O)Nc1noc2cc(Cn3cccn3)cc(OC)c12 (centres unmarked) . Reported Dmax?
50 to 75%

---

Molecular target: HiBit tagged KAT6A (Homo sapiens, UniProt Q92794)
Construct: host or cells: HeLa
Test: HiBit KAT6A Degradation Assessment
Format: cell-based
Conditions: HeLa cells with HiBit tagged KAT6A, 18 h of treatment, 9-point serial dilution
Below: a set of entries, each annotated with reported Dmax.

Solved cases below.
Compound: COc1cc(Cn2cccn2)cc2onc(NS(=O)(=O)c3cccc(N4CCN(CC5CCN(c6cccc7c6C(=O)N(C6CCC(=O)NC6=O)C7=O)C5)CC4)c3)c12 (centres unmarked)
Test Target: HiBit tagged KAT6A (Homo sapiens, UniProt Q92794)
Dmax: 50 to 75%
//
Compound: COc1cc(Cn2cccn2)cc2onc(NS(=O)(=O)c3cccc(N4CCC5(CCN(CC6CCN(c7ccc8c(c7)C(=O)N(C7CCC(=O)NC7=O)C8=O)C6)CC5)CC4)c3)c12 (centres unmarked)
Test Target: HiBit tagged KAT6A (Homo sapiens, UniProt Q92794)
Dmax: > 75%
//
Compound: COc1cc(Cn2cccn2)cc2onc(NS(=O)(=O)c3cccc(N4CC5(CCN(CC6CCN(c7ccc8c(c7)C(=O)N(C7CCC(=O)NC7=O)C8=O)C6)CC5)C4)c3)c12 (centres unmarked)
Test Target: HiBit tagged KAT6A (Homo sapiens, UniProt Q92794)
Dmax: > 75%
//
Compound: COc1cc(Cn2cccn2)cc2onc(NS(=O)(=O)c3cccc(N4CC5(CCN(C[C@H]6CCN(c7ccc8c(c7)C(=O)N(C7CCC(=O)NC7=O)C8=O)C6)CC5)C4)c3)c12 (some centres unmarked)
Test Target: HiBit tagged KAT6A (Homo sapiens, UniProt Q92794)
Dmax: 50 to 75%

Below: the item to evaluate.
Param readout= Dmax; system= HiBit tagged KAT6A (Homo sapiens, UniProt Q92794); entry= COc1cc(Cn2cccn2)cc2onc(NS(=O)(=O)c3cccc(N4CCN(CCCC5CCN(c6ccc7c(c6)C(=O)N(C6CCC(=O)NC6=O)C7=O)CC5)CC4)c3)c12 (centres unmarked) ; returns value.
25 to 50%
